Target: Potassium Channel hERG (Homo sapiens, UniProt Q12809)
Sequence (Q12809 whole entry): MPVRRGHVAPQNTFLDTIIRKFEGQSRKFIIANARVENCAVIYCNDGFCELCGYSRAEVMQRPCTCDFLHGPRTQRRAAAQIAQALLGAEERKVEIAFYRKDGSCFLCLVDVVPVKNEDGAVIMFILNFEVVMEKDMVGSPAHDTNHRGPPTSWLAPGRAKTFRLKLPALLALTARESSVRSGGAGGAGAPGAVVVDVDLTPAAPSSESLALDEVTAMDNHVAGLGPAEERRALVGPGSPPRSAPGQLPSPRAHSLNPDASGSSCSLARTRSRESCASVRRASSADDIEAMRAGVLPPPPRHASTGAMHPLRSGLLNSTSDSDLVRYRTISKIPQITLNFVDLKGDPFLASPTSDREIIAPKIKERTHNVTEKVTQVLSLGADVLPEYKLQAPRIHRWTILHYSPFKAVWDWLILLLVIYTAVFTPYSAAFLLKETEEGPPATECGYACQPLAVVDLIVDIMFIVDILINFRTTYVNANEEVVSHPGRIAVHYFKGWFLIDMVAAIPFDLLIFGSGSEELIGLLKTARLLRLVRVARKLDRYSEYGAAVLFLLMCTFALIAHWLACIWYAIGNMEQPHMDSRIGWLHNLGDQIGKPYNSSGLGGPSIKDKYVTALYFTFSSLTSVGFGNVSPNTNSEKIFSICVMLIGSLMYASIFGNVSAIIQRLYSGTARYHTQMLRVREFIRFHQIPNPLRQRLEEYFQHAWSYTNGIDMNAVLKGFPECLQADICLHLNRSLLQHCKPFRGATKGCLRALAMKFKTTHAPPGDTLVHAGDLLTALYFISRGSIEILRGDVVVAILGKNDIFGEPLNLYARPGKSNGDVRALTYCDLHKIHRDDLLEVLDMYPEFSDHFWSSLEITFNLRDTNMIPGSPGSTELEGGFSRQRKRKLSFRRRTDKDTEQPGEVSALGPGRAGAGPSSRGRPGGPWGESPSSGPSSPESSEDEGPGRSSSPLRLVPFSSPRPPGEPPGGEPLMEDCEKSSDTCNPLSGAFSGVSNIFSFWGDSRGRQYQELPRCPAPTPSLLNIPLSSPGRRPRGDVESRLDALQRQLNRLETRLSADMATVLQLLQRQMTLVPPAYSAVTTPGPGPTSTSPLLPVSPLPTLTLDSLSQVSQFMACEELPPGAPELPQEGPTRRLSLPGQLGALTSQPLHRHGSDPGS
Assay: binding assay, Potassium Channel hERG
propertyLabel: inhibition at 10 µM (%)
Answers are plain numbers, in %.

inhibition at 10 µM reading for O=C1NCC12CCCN2 (stereo not shown) : 3

Reference source for all entries: patent US9593145B2
